assay: pharmacokinetics after oral administration to male Beagle dogs; assay type: in vivo, Beagle dog; details: male, Beagle (HsdRcc:DOBE), dog, plasma, po, 1.5 mg/kg, Plasma concentration of (+)-α-dihydrotetrabenazine, Male 2, oral 1.50 mg/kg (freebase equivalent), 6 h; BLQ = <0.10 ng/mL
Assay metric: concentration at 6 h (ng/mL)
Give bare numbers, in ng/mL.

concentration at 6 h lookup needed for COc1cc2c(cc1OC)[C@H]1C[C@@H](O)[C@H](CC(C)C)CN1CC2 [(+)-α-dihydrotetrabenazine] , thanks.
0.113

###

Assay: pharmacokinetics after oral administration to male Beagle dogs
Format: in vivo, Beagle dog
Settings: male, Beagle (HsdRcc:DOBE), dog, plasma, po, 1.5 mg/kg, Plasma concentration of (+)-α-dihydrotetrabenazine, Male 2, oral 1.50 mg/kg (freebase equivalent), 3 h
Description: Doses were administered orally, via gavage, at a dose volume of 2.00 mL/kg yielding the target dose level of 1.50 mg/kg. Following dosing, 10 mL of tap water was flushed down the gavage to ensure the entire dose was dispensed. Following dosing over four sessions each with one of the test materials, serial whole blood samples (circa. 1.3 mL) were collected from a jugular vein then placed into K2 EDTA treated tubes pre-dose and then 0.25, 0.50, 1, 2, 3, 4, 6, 12 and 24 hours post dose. […]
Assay metric: concentration at 3 h

Field request: concentration at 3 h | item: COc1cc2c(cc1OC)[C@H]1C[C@@H](O)[C@H](CC(C)C)CN1CC2.O=C(O)CCC(=O)O [(+)-α-dihydrotetrabenazine succinate]
1.23 ng/mL

###

Assay: equilibrium aqueous solubility by HPLC
Format: physicochemical
Conditions: thermodynamic from solid; water, measured by HPLC; read-out: equilibrium solubility in water
Procedure: The aqueous solubilities of salts were measured by an equilibrium method in which an amount of the salt was weighed into a 2 ml vial equipped with a magnetic stirrer bar and water added. […] The solids were analysed by XRPD and the filtrates were analysed by HPLC to determine the amount of (+)-alpha-dihydrotetrabenazine salt in solution. The solubilities were calculated against a calibration curve established for a (+)-alpha-dihydrotetrabenazine sample of known concentration.
Assay metric: solubility thermodynamic at 7 days (µg/mL)
Give bare numbers, in µg/mL.

# query: solubility thermodynamic at 7 days of entry COc1cc2c(cc1OC)[C@H]1C[C@@H](O)[C@H](CC(C)C)CN1CC2 [(+)-α-dihydrotetrabenazine]
127

###

test: pharmacokinetics after oral administration to male Beagle dogs; format: in vivo, Beagle dog; details: male, Beagle (HsdRcc:DOBE), dog, plasma, po, 1.5 mg/kg, Plasma concentration of (+)-α-dihydrotetrabenazine, Male 1, oral 1.50 mg/kg (freebase equivalent), 2 h
Assay metric: concentration at 2 h (ng/mL)
Give bare numbers, in ng/mL.

What value of concentration at 2 h has been recorded for this entry: COc1cc2c(cc1OC)[C@H]1C[C@@H](O)[C@H](CC(C)C)CN1CC2.O=C(O)CCC(=O)O [(+)-α-dihydrotetrabenazine succinate]
7.04

###

assay: pharmacokinetics after oral administration to male Beagle dogs; format: in vivo, Beagle dog; settings: male, Beagle (HsdRcc:DOBE), dog, plasma, po, 1.5 mg/kg, Plasma concentration of (+)-α-dihydrotetrabenazine, Male 1, oral 1.50 mg/kg (freebase equivalent), 6 h
Assay metric: concentration at 6 h (ng/mL)
One number for each entry, in ng/mL.

Could you share which concentration at 6 h value was measured for COc1cc2c(cc1OC)[C@H]1C[C@@H](O)[C@H](CC(C)C)CN1CC2.O=C(O)CCC(=O)O [(+)-α-dihydrotetrabenazine succinate] ?
0.304

###

test: pharmacokinetics after oral administration to male Beagle dogs; format: in vivo, Beagle dog; settings: male, Beagle (HsdRcc:DOBE), dog, plasma, po, 1.5 mg/kg, Plasma concentration of (+)-α-dihydrotetrabenazine, Male 1, oral 1.50 mg/kg (freebase equivalent), 3 h
Assay metric: concentration at 3 h (ng/mL)
Give bare numbers, in ng/mL.

I have this molecule here, COc1cc2c(cc1OC)[C@H]1C[C@@H](O)[C@H](CC(C)C)CN1CC2.O=C(O)CCC(=O)O [(+)-α-dihydrotetrabenazine succinate] , and I need its recorded concentration at 3 h.
2.48

###

Assay: pharmacokinetics after oral administration to male Beagle dogs
Type: in vivo, Beagle dog
Conditions: male, Beagle (HsdRcc:DOBE), dog, plasma, po, 1.5 mg/kg, Plasma concentration of (+)-α-dihydrotetrabenazine, Mean of 3 dogs, oral 1.50 mg/kg (freebase equivalent), 0.25 h
Protocol: Doses were administered orally, via gavage, at a dose volume of 2.00 mL/kg yielding the target dose level of 1.50 mg/kg. Following dosing, 10 mL of tap water was flushed down the gavage to ensure the entire dose was dispensed. Following dosing over four sessions each with one of the test materials, serial whole blood samples (circa. 1.3 mL) were collected from a jugular vein then placed into K2 EDTA treated tubes pre-dose and then 0.25, 0.50, 1, 2, 3, 4, 6, 12 and 24 hours post dose. […]
Assay metric: concentration at 0.25 h (ng/mL)
Give bare numbers, in ng/mL.

Would you kindly share the measured concentration at 0.25 h for COc1cc2c(cc1OC)[C@H]1C[C@@H](O)[C@H](CC(C)C)CN1CC2.O=C(O)CCC(=O)O [(+)-α-dihydrotetrabenazine succinate] ?
46

###

test: plasma concentrations after oral dosing to human volunteers; assay type: in vivo; conditions: human, plasma; subject 2 (76 kg), 7.5 mg oral, 2 h
Assay metric: concentration at 2 h (ng/mL)
Give bare numbers, in ng/mL.

Value lookup for concentration at 2 h; key = COc1cc2c(cc1OC)[C@H]1C[C@@H](O)[C@H](CC(C)C)CN1CC2 [(+)-α-dihydrotetrabenazine]
14

###

experiment: equilibrium aqueous solubility by HPLC; assay type: physicochemical
Assay metric: solubility thermodynamic (mg/mL)
Answers are plain numbers, in mg/mL.

Please report the recorded solubility thermodynamic for COc1cc2c(cc1OC)[C@H]1C[C@@H](O)[C@H](CC(C)C)CN1CC2.Cl [HCl salt form A, (+)-α-dihydrotetrabenazine hydrochloride] .
203
